// data source = PubChem BioAssay

# assayText: budding yeast growth modifiers under rapamycin – strain BY4716, OD600, 96 h, primary screen (AID 1091); note: test concentration not given here
# assayContext: S. cerevisiae BY4716 + rapamycin, higher = more signal, called active from +8 up or from −8 down
The source made the active and inactive calls.
Recorded z-score, one value per entry.
measurementName: z-score

C=CCNC(=O)[C@@H]1[C@H]2C(=O)O[C@H](c3ccccc3)[C@H](c3ccccc3)N2[C@H](c2ccccc2OCCO)[C@@]12C(=O)N(C(=O)OCCOC)c1ccc(C#CC3(O)CCCCCC3)cc12
5.23 (inactive)
COc1cc2c(cc1O)C(C1CC1)N(C)CC2 (stereo unspecified)
-0.531 (inactive)
COc1cc(NN2C(C(O)c3ccc(N(C)C)cc3)C=CC3C(=O)N(c4ccccc4)C(=O)C32)cc(OC)c1OC (stereo unspecified)
-0.363 (inactive)
O=C1CS(=O)(=O)C(c2cccc([N+](=O)[O-])c2)N1c1ccccc1 (stereo unspecified)
-0.811 (inactive)
CCOC(=O)[C@@H]1CCCCN1C(=O)C(=O)OC
-0.131 (inactive)
C=CC[C@]1(C(=O)N2CCOCC2)COC(c2ccc(OCCCO)cc2)=N1
-1.28 (inactive)
C=C(/C(=C/C[C@H](OC(C)=O)c1ccc(CO)o1)c1cnc2ccccc2c1)C(C)C
0.171 (inactive)
C=CC[C@@H](OC(=O)Nc1ccc(SC)cc1)c1ccc(O)c(F)c1
-0.545 (inactive)
CC(C)C(CO)N1C(=O)[C@@H]2C3C(=O)OCCC/C=C\[C@H]3OC23C=CCN(c2ccc4ccccc4c2)C(=O)[C@@H]13 (stereo partly specified)
-0.0641 (inactive)
C=CCNC(=O)[C@@H]1[C@H]2C(=O)O[C@H](c3ccccc3)[C@H](c3ccccc3)N2[C@H](c2ccc(O)cc2)[C@@]12C(=O)N(C(=O)OCCOC)c1ccc(C#CC3=CCCCC3)cc12
0.969 (inactive)
COc1ccc([Si](C)(C)[C@@H]2[C@@H](CCO)O[C@]3(C(=O)N(Cc4ccccc4)c4ccc(N5CCOC5=O)cc43)[C@H]2C)cc1
17.5 (active)
COc1ccc(C(=O)Nc2ccc(CN3C(=O)[C@]4(O[C@H](CC(=O)N5Cc6ccccc6C[C@H]5CO)[C@@H]([Si](C)(C)c5ccc(OC)cc5)[C@@H]4C)c4ccccc43)cc2)cc1
3.94 (inactive)
Cc1ccc(S[C@]2(C(=O)O)CC(=O)N(C3CCCCC3)[C@@H]2c2ccc(CO)cc2I)cc1
0.253 (inactive)
COc1ccc([Si](C)(C)[C@H]2[C@H](CC(=O)N3CCC[C@H]3CO)O[C@@]3(C(=O)N(Cc4ccc(N5CCOC5=O)cc4)c4ccccc43)[C@@H]2C)cc1
-0.38 (inactive)
COc1cc(NN2C(C(O)c3ccco3)C=CC3C(=O)N(C)C(=O)C32)cc(OC)c1OC (stereo unspecified)
0.462 (inactive)
NC(=O)[C@H]1[C@@H]2C(=O)O[C@@H](c3ccccc3)[C@@H](c3ccccc3)N2[C@@H](c2ccc(OCCO)cc2)[C@]12C(=O)Nc1ccc(C#CCCO)cc12
3.63 (inactive)
